target: CYP11B1 (steroid-11beta-hydroxylase) (Homo sapiens, UniProt P15538); assay: Inhibition of human steroid-11beta-hydroxylase expressed in chinese hamster V79 cells at 500 nM using 11-deoxycorticosterone as substrate; settings: probe 11-deoxycorticosterone
Sequence (P15538 whole entry): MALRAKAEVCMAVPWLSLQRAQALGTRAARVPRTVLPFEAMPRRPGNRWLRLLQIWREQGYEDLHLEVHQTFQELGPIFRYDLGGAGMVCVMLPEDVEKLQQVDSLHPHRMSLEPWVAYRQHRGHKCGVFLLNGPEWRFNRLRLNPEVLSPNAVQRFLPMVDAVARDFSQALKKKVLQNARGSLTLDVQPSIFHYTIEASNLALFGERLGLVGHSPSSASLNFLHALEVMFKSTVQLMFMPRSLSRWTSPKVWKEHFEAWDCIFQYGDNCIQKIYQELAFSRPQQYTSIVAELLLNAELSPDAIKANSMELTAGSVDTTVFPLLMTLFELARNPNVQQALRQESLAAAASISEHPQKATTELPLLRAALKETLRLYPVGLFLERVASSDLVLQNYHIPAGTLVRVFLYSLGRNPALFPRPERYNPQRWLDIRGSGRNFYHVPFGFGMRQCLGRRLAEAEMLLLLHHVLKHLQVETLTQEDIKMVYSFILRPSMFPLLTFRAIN
Output Satisfied for inhibition at 0.5 µM not less than 0.1%; output Not satisfied otherwise.

* O=C(Nc1cccnc1)c1ccc(OC(F)(F)F)cc1 | Satisfied
* O=C(Nc1cccnc1)c1cccc(Cl)c1 | Not satisfied

Evaluate O=C(Nc1cccnc1)c1ccncc1 : inhibition at 0.5 µM at minimum 0.1%? Satisfied

Threshold query (inhibition at 0.5 µM >= 0.1%) on O=C(Nc1cccnc1)c1ccc(-c2ccccc2)cc1 Not satisfied

Evaluate O=C1CCc2cc(-c3cncc4ccccc34)ccc2N1 : inhibition at 0.5 µM at minimum 0.1%? Satisfied

The reported measurements were obtained from ChEMBL document CHEMBL1641566.
